Hey, just so you know, these numbers are from ChEMBL document CHEMBL3397025.

tested on: DU-145; experiment: Cytotoxicity against human DU145 cells assessed as cell viability after 48 hrs by MTT assay; format: functional, cell-based; conditions: DU-145, 48 h
Metric Name: pIC50
pIC50 is a log-scale quantity: -log10 of the concentration expressed in molar.

Form: item "Nc1nc2c(ncn2C(=O)CCC(=O)OC[C@H]2O[C@H](O[C@H]3O[C@H](CO)[C@@H](O)[C@H](O)[C@H]3O)[C@H](O)[C@@H](O)[C@@H]2O)c(=O)[nH]1" ; test system DU-145; pIC50: 4.60
